- System: NCI-H23 lung
- Assay Text: NCI tumour cell line growth inhibition, 48 h
Each item that follows carries a reported GI50.

Example entries begin here.
- Molecule: "Cc1ccc(NC(=O)c2cc3ccccc3cc2O)c(C)c1.Cc1ccc(NC(=O)c2cc3ccccc3cc2[O-])c(C)c1.[Ni+2]"
  Observation Type: "GI50"
  Reported Measurement: "2480 nM"
- Molecule: "COc1cc(/C=C2\\C[C@H]3[C@@H]4CC=C5C[C@@H](OC(C)=O)CC[C@]5(C)[C@H]4CC[C@]3(C)[C@H]2OC(C)=O)ccc1OCCN1CCCCC1"
  Observation Type: "GI50"
  Reported Measurement: "> 50000 nM"
- Molecule: "O=C(NCCCCCCNC(=O)OCc1ccc2c(Cl)cc(Cl)c(O)c2n1)OCc1ccc2c(Cl)cc(Cl)c(O)c2n1"
  Observation Type: "GI50"
  Reported Measurement: "1420 nM"
- Molecule: "CCN(CC)CC[n+]1cc2cc(OC)c(OC)cc2c2ccc3cc4c(cc3c21)OCO4"
  Observation Type: "GI50"
  Reported Measurement: "618 nM"
- Molecule: "Cc1cc2nc(C(Cl)Cl)nc(-c3ccccc3)n2n1"
  Observation Type: "GI50"
  Reported Measurement: "3060 nM"
- Molecule: "O=S(=O)(Nc1ccccn1)c1ccc(N=Nc2ccc(O)c3ncccc23)cc1"
  Observation Type: "GI50"
  Reported Measurement: "2340 nM"

Data request: Recorded GI50 of CC#CC(=O)N1CC[C@@H](n2c(=O)n(-c3ccc(Oc4ccccc4)cc3)c3c(N)ncnc32)C1 , please.
Data returned: 36800 nM

Data request: Recorded GI50 of COc1ccc2nc(-c3cc4c([nH]c5ccccc54)c(-c4ccc(F)c(F)c4)n3)[nH]c2c1 , please.
Data returned: 6560 nM

Data request: Recorded GI50 of Cc1ccc(C2=NN(c3ccc(S(N)(=O)=O)cc3)C(c3cn(-c4ccccc4)nc3-c3ccccc3)C2)cc1 (centres undefined) , please.
Data returned: 14100 nM

Data request: Recorded GI50 of COc1cc2c(cc1OCCCN1CCN(c3ncnc4ccccc34)CC1)N=CC1CCCN1C2=O (centres undefined) , please.
Data returned: 26.8 nM

Data request: Recorded GI50 of COc1ccc(C2CC(=O)c3c(O)c(OC)c(OC)c(OC)c3O2)cc1O (centres undefined) , please.
Data returned: 547 nM

* * *

- System: HCC-2998 colon
- Assay Text: NCI tumour cell line growth inhibition, 48 h
Each item that follows carries a reported TGI.

- Compound: "Cc1ccc(C2=NN(c3ccc(S(N)(=O)=O)cc3)C(c3cn(-c4ccccc4)nc3-c3ccccc3)C2)cc1 (centres undefined)"
  TGI: "> 100 µM"
- Compound: "COc1ccc2nc(-c3cc4c([nH]c5ccccc54)c(-c4ccc(F)c(F)c4)n3)[nH]c2c1"
  TGI: "25.3 µM"
- Compound: "N#Cc1nn(-c2cc(=O)[nH]c3ccc(Br)cc23)c(N)c1C#N"
  TGI: "> 100 µM"
- Compound: "COc1cnc2c(c1)C(=O)c1c-2n(CCCNC(C)C)c(=O)c2cc([N+](=O)[O-])ccc12"
  TGI: "0.269 µM"
- Compound: "Cc1cn(C2CC(NC(=NCC3OC(n4cnc5c(N)ncnc54)CC3O)NC#N)C(CO)O2)c(=O)[nH]c1=O (centres undefined)"
  TGI: "> 100 µM"
- Compound: "O=c1[nH]c2cc([N+](=O)[O-])ccc2nc1/C=C(\\O)c1ccc(Cl)cc1"
  TGI: "72.3 µM"

Data request: Recorded TGI of CC(C)c1ccc2nc3ccc(C(=O)NCCN4CCN(c5ccccc5)CC4)cn3c(=O)c2c1 , please.
Data returned: > 100 µM

Data request: Recorded TGI of CCOC(=O)Nn1c(C)cc(C(=O)OC)c1C , please.
Data returned: > 100 µM

* * *

Each item that follows carries a reported GI50.
- Test system: HOP-62 NSCLC
- Assay Text: NCI tumour cell line growth inhibition, 48 h

Example entries begin here.
- Molecule: "COc1ccc2nc(-c3cc4c([nH]c5ccccc54)c(-c4ccc(F)c(F)c4)n3)[nH]c2c1"
  Observation Type: "GI50"
  Reported Measurement: "10.9 µM"
- Molecule: "O=C(NCCCCCCNC(=O)OCc1ccc2c(Cl)cc(Cl)c(O)c2n1)OCc1ccc2c(Cl)cc(Cl)c(O)c2n1"
  Observation Type: "GI50"
  Reported Measurement: "1.7 µM"
- Molecule: "C=C1C(=O)O[C@H]2[C@H]1CC/C(COC(=O)NCc1cc(OC)cc(OC)c1)=C\\CC[C@@]1(C)O[C@@H]21"
  Observation Type: "GI50"
  Reported Measurement: "3.06 µM"
- Molecule: "COc1cc(N2CCC(N3CCN(C)CC3)CC2)ccc1Nc1ncc(Cl)c(Nc2ccccc2S(=O)(=O)C(C)C)n1"
  Observation Type: "GI50"
  Reported Measurement: "0.414 µM"
- Molecule: "Clc1ccc2c(NCCNc3nc(N4CCCC4)nc4ccccc34)ccnc2c1"
  Observation Type: "GI50"
  Reported Measurement: "1.49 µM"

Data request: Recorded GI50 of Cc1ccc(C2=NN(c3ccc(S(N)(=O)=O)cc3)C(c3cn(-c4ccccc4)nc3-c3ccccc3)C2)cc1 (stereo not given) , please.
Data returned: > 100 µM

Data request: Recorded GI50 of CN1CCN(CC(=O)N2c3cccc4cccc(c34)N(C(=O)CN3CCN(C)CC3)C2c2cn(-c3ccccc3)nc2-c2cccc([N+](=O)[O-])c2)CC1 , please.
Data returned: 2.02 µM

Data request: Recorded GI50 of Cc1nc2sc(C(=O)Nc3cccc(Br)c3)c(N)c2cc1C(O)c1ccccc1 (stereo not given) , please.
Data returned: 1.57 µM

Data request: Recorded GI50 of O=S(=O)(Nc1ccccn1)c1ccc(N=Nc2ccc(O)c3ncccc23)cc1 , please.
Data returned: 1.14 µM

Data request: Recorded GI50 of O=C(O)c1ccccc1Nc1ccc2nnc(-c3ccncc3)n2n1 , please.
Data returned: 15.4 µM

* * *

- System: SK-MEL-2 melanoma
- Assay Text: NCI tumour cell line growth inhibition, 48 h
Each item that follows carries a reported GI50.

Example entries begin here.
- Compound: "COc1cc2c(cc1OCCCN1CCN(c3ncnc4ccccc34)CC1)N=CC1CCCN1C2=O (stereo not given)"
  GI50: "0.0646 µM"
- Compound: "Cc1nc2sc(C(=O)Nc3cccc(Br)c3)c(N)c2cc1C(O)c1ccccc1 (stereo not given)"
  GI50: "1.77 µM"
- Compound: "COC(C)(C)[C@H](O)C(O)CC(C)[C@@H]1CCC23CC12CCC1[C@@]2(C)CCC(OC(C)=O)C(C)(C)C2CC(OC2OC(COC(C)=O)C(O)C(O)C2O)[C@]13C (stereo not given in full)"
  GI50: "4.34 µM"

Data request: Recorded GI50 of COc1ccc2nc(-c3cc4c([nH]c5ccccc54)c(-c4ccc(F)c(F)c4)n3)[nH]c2c1 , please.
Data returned: 12.1 µM

Data request: Recorded GI50 of Nc1nc(-c2ccc(Cl)cc2)cc(-c2ccccc2)c1-c1nc2ccccc2o1 , please.
Data returned: 15.5 µM

* * *

- Test system: HT29 colon
- Assay Text: NCI tumour cell line growth inhibition, 48 h; in the data active = GI50 below about 0.43 µM; inactive = the rest
Output constraint: value belongs to active, inactive

Known results for molecules:
- Entry Smiles: "CC#CC(=O)N1CC[C@@H](n2c(=O)n(-c3ccc(Oc4ccccc4)cc3)c3c(N)ncnc32)C1"
  Study System: "HT29 colon"
  Class Name: "inactive"
- Entry Smiles: "COc1ccc2nc3ccccc3c(NCc3ccc(C)cc3)c2c1"
  Study System: "HT29 colon"
  Class Name: "inactive"
- Entry Smiles: "Oc1c(I)cc(I)cc1CN(Cc1ccccn1)Cc1ccccn1"
  Study System: "HT29 colon"
  Class Name: "inactive"
- Entry Smiles: "CCN1CCN(c2ccc(Nc3ncc4ccc5ncn(C(C)C)c5c4n3)nc2)CC1"
  Study System: "HT29 colon"
  Class Name: "active"

Continue with the molecule presented below.
Data request: Please share the test call associated with CCOCCOC[C@H]1CCCN(c2ccnc3sc(C(N)=O)c(N)c23)C1 .
Data returned: inactive

* * *

- Test system: OVCAR-5 ovarian
- Assay Text: NCI tumour cell line growth inhibition, 48 h; in the data active = GI50 below about 0.43 µM; inactive = the rest
Output constraint: value belongs to true for active, false for inactive

- Compound: "COc1cc(C)c(NC(=O)CN(C)C)cc1Nc1nc(Nc2cccc(F)c2C(N)=O)c2cc[nH]c2n1"
  Class Name: "true"
- Compound: "CN1CCN(CC(=O)N2c3cccc4cccc(c34)N(C(=O)CN3CCN(C)CC3)C2c2cn(-c3ccccc3)nc2-c2cccc([N+](=O)[O-])c2)CC1"
  Class Name: "false"

Data request: Please share the test call associated with CC(CN)[C@@H]1CC[C@]2(CO)CC[C@]3(C)[C@H](CC[C@@H]4[C@@]5(C)CCC(N)C(C)(C)[C@@H]5CC[C@]43C)[C@@H]12 (stereo partly drawn) .
Data returned: false

Data request: Please share the test call associated with Nc1ccccc1C#Cc1ccccc1C#Cc1cnccn1 .
Data returned: false

Data request: Please share the test call associated with COc1ccc2nc(-c3cc4c([nH]c5ccccc54)c(-c4ccc(F)c(F)c4)n3)[nH]c2c1 .
Data returned: false

Data request: Please share the test call associated with Nc1ccc(-c2ccc(-c3nc4cc(Cl)c(Cl)cc4[nH]3)cc2)cc1 .
Data returned: false

Data request: Please share the test call associated with c1ccc2c3c(ccc2c1)-c1c(ccc2c(NCCCCN4CCCCC4)cccc12)C3 .
Data returned: false

Data request: Please share the test call associated with COc1cnc2c(c1)C(=O)c1c-2n(CCCNC(C)C)c(=O)c2cc([N+](=O)[O-])ccc12 .
Data returned: true
